Recorded values, source patent US11674967B2.

RMSD (Å) with Compound 34 values for the molecules below.
Target of assay: human TNFα trimer (Homo sapiens, UniProt P01375)
Construct: His6Smt-tag (N, cleaved yes); made in house; host or cells: E. coli (vector pEMB54)
Sequence (P01375 with tags, fused parts or gaps): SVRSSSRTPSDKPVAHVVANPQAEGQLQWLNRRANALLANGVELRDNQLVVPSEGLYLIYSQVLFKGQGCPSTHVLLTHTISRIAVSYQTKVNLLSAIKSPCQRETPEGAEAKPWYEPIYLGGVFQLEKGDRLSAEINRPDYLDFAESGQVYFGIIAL
Test: RMSD of crystal structure of compound-bound TNFα trimer to Reference Structure Compound 34
Condition info: Cα atoms of β-sheet residues, all three subunits, PyMOL
Measured parameter: RMSD (Å) with Compound 34

* Cc1nc2ccc(-c3ccc(N4CCNCC4)nc3)cc2n1Cc1ccccc1OC(F)F | 0.24
* NC(=O)c1ccc(OCc2nc3ccc(-c4cc[n+]([O-])cc4)cc3n2Cc2cc(Cl)ccc2Cl)cc1 | 0.22
* Cc1ccc(C)c(C2CCc3nc4ccc(Br)cc4n32)c1 (centres unmarked) | 0.28
* N#Cc1ccc2nc(Cn3nnc(N4CCOCC4)n3)n(Cc3ccccc3OC(F)F)c2c1 | 0.17
* N#Cc1ccc2nc(COc3cccc(N4CCCC4=O)c3)n(Cc3cc(Cl)ccc3Cl)c2c1 | 0.24
* Cc1nc(Cn2c(COc3ccc(C(N)=O)cc3)nc3ccc(-c4cc[n+]([O-])cc4)cc32)cs1 | 0.23
* COc1ccc(OCc2nc3ccc(Br)cc3n2Cc2nc(C)sc2Cl)cn1 | 0.34
* Cc1nc2ccc(-c3cnc(N4CCNC(=O)C4)nc3)cn2c1[C@@H](O)c1ccccc1OC(F)F | 0.24
* CS(=O)(=O)c1ccc(Cc2nc3ccc(-c4ccc(S(C)(=O)=O)cc4)cc3n2Cc2ccccc2OC(F)F)cc1 | 0.16
* FC(F)Oc1ccccc1C1CCc2nc3ccc(Br)cc3n21 (centres unmarked) | 0.26
* Cc1nc(Cn2c(COc3ccc(C(N)=O)cc3)nc3ccc(-c4ccncn4)cc32)cs1 | 0.24
* Cc1ccc(C)c(Cn2c(COCc3ccncc3)nc3ccccc32)c1 | 0.25
* Cc1nc2ccc(-c3ccc(N4CCNCC4)nc3)cn2c1Cc1ccccc1OC(F)F | 0.36
* Cc1cc2nc(C)c(Cc3ccccc3OC(F)F)n2cc1-c1cnc(NCC2(C(=O)O)CC2)nc1 | 0.32
* N#Cc1ccc2nc(COc3cccc(N4CC(O)CC4=O)c3)n(Cc3ccccc3OC(F)F)c2c1 (centres unmarked) [Compound 37] | 0.22
* Cc1nc2ccc(-c3cnc(N4CCNC(=O)CC4)nc3)cn2c1C(C)c1ccccc1OC(F)F (centres unmarked) | 0.30
* COCCNc1ncc(-c2ccc3nc(C)n(Cc4ccccc4OC(F)F)c3c2)cn1 | 0.25

====

RMSD (Å) with Compound 34 values for the compounds below.
Target of assay: human TNFα trimer (Homo sapiens, UniProt P01375)
Construct: His6Smt-tag (N, cleaved yes); made in house; host or cells: E. coli (vector pEMB54)
Test: RMSD of crystal structure of compound-bound TNFα trimer to Reference Structure Compound 34
Condition info: Cα atoms of β-sheet residues, all three subunits, PyMOL
Measured parameter: RMSD (Å) with Compound 34

- Cc1ccc(C)c(Cn2c(CO)nc3ccc(-c4ccc(N(C)C)nc4)cc32)c1: 0.30
- Cc1ccc(C)c(Cn2c(Cc3ccncc3)nc3ccc(-c4ccncc4)cc32)c1: 0.31
- CC(c1ccccc1)n1c(COc2cccc(N3CCCC3=O)c2)nc2ccc(C#N)cc21 (centres unmarked): 0.21
- Cc1ccc(C)c(Cn2c(Cn3cc(-c4cccc(O)c4)nn3)nc3ccccc32)c1: 0.21
- COc1ccc(-c2ccc3nc(Cc4ccc(S(C)(=O)=O)cc4)n(C(C)c4ccccc4)c3c2)cn1 (centres unmarked): 0.24
- CC(c1ccccc1OC(F)F)n1c(COc2cccc(N3CCCC3=O)c2)nc2ccc(Br)cc21 (centres unmarked) [Compound 53]: 0.24
- Clc1ccc(Cl)c(Cn2c(Cc3ccncc3)nc3ccccc32)c1: 0.30
- N#Cc1ccc2nc(COc3cccc(N4CCC(O)C4=O)c3)n(Cc3ccccc3OC(F)F)c2c1 (centres unmarked): 0.16
- COCc1nc2ccc(-c3ccc(N4CCN(C(C)=O)CC4)nc3)cc2n1Cc1ccccc1OC(F)F: 0.14
- Cc1ccc(C)c(Nn2c(C(O)c3ccncc3)nc3ccccc32)c1 (centres unmarked): 0.28
- Cc1ccc(C)c(Cn2c(C(O)c3ccncc3)nc3cc(-c4ccc(N5CCNCC5)cc4)ccc32)c1 (centres unmarked): 0.30
- Cc1ccc(C)c(Cn2c(COCc3ccccc3[N+](=O)[O-])nc3ccccc32)c1: 0.44
- FC(F)Oc1ccccc1C1NCCc2nc3ccc(-c4cnc(N5CCOCC5)nc4)cn3c21 (centres unmarked): 0.34
- COCc1nc2ccc(-c3ccc(N4CCNC(=O)C4)nc3)cc2n1Cc1ccccc1OC(F)F: 0.17
- CNC(=O)c1ccc(OCc2nc3ccc(-c4ccncc4)cc3n2Cc2cc(Cl)ccc2Cl)cc1: 0.22
- CS(=O)(=O)c1cccc(OCc2nc3ccc(C#N)cc3n2Cc2cc(Cl)ccc2Cl)c1: 0.29
- Cc1cc(OCc2nc3ccc(C#N)cc3n2C(C)c2ccccc2)no1 (centres unmarked): 0.20
- N#Cc1ccc2nc(Cc3ccc(NC(N)=O)cc3)n(Cc3ccccc3OC(F)F)c2c1: 0.23
- Cc1ccc(C)c(Cn2c(C(O)c3ccncc3)nc3ccc(-c4cn[nH]c4)cc32)c1 (centres unmarked): 0.27
- Cc1ccc(C)c(Cn2c(COc3ccc4ccncc4c3)nc3ccccc32)c1: 0.47
- Cc1nc2cnc(-c3ccc(=O)[nH]c3)cn2c1Cc1cc(Cl)ccc1Cl: 0.38
- Cc1nc2ccc(-c3cnc(N4CCC(C(=O)O)CC4)nc3)cn2c1Cc1ccccc1OC(F)F: 0.27
- N#Cc1ccc2nc(COc3cccc(N4CC(O)CC4=O)c3)n(Cc3ccccc3OC(F)F)c2c1 (centres unmarked) [Compound 36]: 0.21
- Cc1ccc(C)c(Cn2c(C(O)c3ccncc3)nc3ccccc32)c1 (centres unmarked): 0.33
- Cc1ccc(C)c(Cn2c(Cc3ccncc3)nc3ccc(-c4ccc(CN5CCCC5)cc4)cc32)c1: 0.21
- N#Cc1ccc2nc(Cc3csc(N4CCNC4=O)n3)n(Cc3ccccc3OC(F)F)c2c1: 0.24
- Cc1nc2ccc(-c3cnn(C)c3)cn2c1Cc1cc(Cl)ccc1Cl: 0.28
- Cc1nc2ccc(-c3cnc(N4CCNC(=O)CC4C)nc3)cn2c1Cc1ccccc1OC(F)F (centres unmarked): 0.26
- COc1ccc(-c2ccc3nc4c(n3c2)C(c2ccccc2)OCC4)cn1 (centres unmarked): 0.30
- Cc1ccc(C)c(Cn2c(C(O)c3ccncc3)nc3ccc(-c4cnn(C)c4)cc32)c1 (centres unmarked): 0.24
- Cc1nc2ccc(-c3ccc(N4CCNCC4)nc3)cn2c1C(O)c1ccccc1OC(F)F (centres unmarked): 0.26
- Cc1nc2cc(F)c(-c3cnc(N4CC(O)(C(F)(F)F)C4)nc3)cn2c1[C@@H](O)c1ccccc1OC(F)F: 0.22
- Cc1ccc(C)c(Cn2c(C(O)c3ccc(N(C)C)cc3)nc3ccccc32)c1 (centres unmarked): 0.21
- O=C1CCCN1c1cccc(OCc2nc3ccc(-c4ccc(=O)[nH]c4)cc3n2Cc2ccccc2OC(F)F)c1: 0.22
- COC(=O)CCc1ccc2nc(C(O)c3ccncc3)n(Cc3cc(C)ccc3C)c2c1 (centres unmarked): 0.36
